subjectOfTest: Gal-1 (Homo sapiens)
Construct: made in house; host or cells: E. coli BL21(DE3)
Sequence (P09382 whole entry): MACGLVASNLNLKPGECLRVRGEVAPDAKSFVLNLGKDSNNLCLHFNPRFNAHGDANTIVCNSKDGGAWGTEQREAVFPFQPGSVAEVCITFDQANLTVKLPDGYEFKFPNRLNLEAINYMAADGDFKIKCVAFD
protocolText: Pull-down assay with immobilized protein and LSM libraries
Assay type: binding
assayConditions: H12 library; 1:1 binding assumed; read-out: Surface mapping KD (apparent)
Procedure: Pull-down assays with immobilized test proteins and foldameric LSM libraries were carried out. Proteins were equilibrated with LSM probes, and equilibrium bound fractions (FB) were determined from the unbound fractions measured by HPLC-MS methods. Hits were corrected with background binding of the resin. […] MS data analysis. […] Using these processing setups, all raw data files were reprocessed together and analyzed. […]
parameter: Kd (µM)

Entry N=C(N)NCCC[C@@H](CC(=O)N[C@H]1CCC[C@@H]1C(=O)N[C@H]1CCC[C@@H]1C(=O)N[C@@H](CCCCN)CC(=O)N[C@H]1CCC[C@@H]1C(=O)N[C@H]1CCC[C@@H]1C(N)=O)NC(=O)[C@H]1CCC[C@@H]1NC(=O)[C@H]1CCC[C@@H]1N [H12 RK] — recorded Kd = 231

Entry N=C(N)NCCC[C@@H](CC(=O)N[C@H]1CCC[C@@H]1C(=O)N[C@H]1CCC[C@@H]1C(N)=O)NC(=O)[C@H]1CCC[C@@H]1NC(=O)[C@H]1CCC[C@@H]1NC(=O)C[C@H](CO)NC(=O)[C@H]1CCC[C@@H]1NC(=O)[C@H]1CCC[C@@H]1N [H12 SR] — recorded Kd = 402

(P) C[C@@H](CC(=O)N[C@H]1CCC[C@@H]1C(=O)N[C@H]1CCC[C@@H]1C(=O)N[C@@H](CCC(=O)O)CC(=O)N[C@H]1CCC[C@@H]1C(=O)N[C@H]1CCC[C@@H]1C(N)=O)NC(=O)[C@H]1CCC[C@@H]1NC(=O)[C@H]1CCC[C@@H]1N [H12 AE]
(Q) C[C@@H](CC(=O)N[C@H]1CCC[C@@H]1C(=O)N[C@H]1CCC[C@@H]1C(N)=O)NC(=O)[C@H]1CCC[C@@H]1NC(=O)[C@H]1CCC[C@@H]1NC(=O)C[C@H](CC(=O)O)NC(=O)[C@H]1CCC[C@@H]1NC(=O)[C@H]1CCC[C@@H]1N [H12 DA]
Data request: Between item P and item Q , which reported Kd is smaller? Write down the label of the entry you select.
Data returned: Q
